Measured IC50 by item
test_target: T1, CD3 expressed on cell-surface of primary human T cells (human, UniProt P07766 23-207; P04234 22-171)
T1 construct: also called cell-surface CD3; human CD3
T1 sequence (P07766 23-207 limits assumed, chain 1 of 2): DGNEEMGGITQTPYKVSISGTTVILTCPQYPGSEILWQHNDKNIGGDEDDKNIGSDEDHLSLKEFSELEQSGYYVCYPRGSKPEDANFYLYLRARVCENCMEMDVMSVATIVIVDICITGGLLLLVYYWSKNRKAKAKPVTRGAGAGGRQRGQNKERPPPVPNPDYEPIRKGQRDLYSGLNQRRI
T1 sequence (P04234 22-171 limits assumed, chain 2 of 2): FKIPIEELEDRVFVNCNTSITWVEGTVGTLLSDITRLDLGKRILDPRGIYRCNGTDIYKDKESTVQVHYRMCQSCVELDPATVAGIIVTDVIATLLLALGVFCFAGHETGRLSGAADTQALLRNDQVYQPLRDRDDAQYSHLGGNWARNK
assay_protocol: flow cytometry competition vs murine SP34-AF488 on human T cells, average
observable: IC50 (µg/mL)

binder | observable | reading
huSP34.12.7 Fab-HF (Fab, V domains shown) VH: EVQLVESGGGLVQPGGSLRLSCAASGFTFSTYAMNWVRQAPGKGLEWVARIRSKYNNYATYYAASVKGRFTISRDDSKNSLYLQMNSLRTEDTAVYYCVRHGNFGHSYVSWFAYWGQGTLVTVSS VL: QAVVTQEPSLTVSPGGTVTLTCRSSTGAVTTGHYANWVQQKPGQAPRGLIGGTNKRAPGVPARFSGSLLGGKAALTISGAQPEDEAEYYCALWYSNLWVFGGGTKLTVL | IC50 | 0.58
huSP34.3.9 Fab-HF (Fab, V domains shown) VH: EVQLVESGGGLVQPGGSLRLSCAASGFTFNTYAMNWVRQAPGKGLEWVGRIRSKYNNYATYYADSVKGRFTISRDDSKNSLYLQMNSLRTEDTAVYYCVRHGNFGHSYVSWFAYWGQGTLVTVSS VL: QAVVTQPPSLTVSPGGTVTLTCGSSTGAVTTGHYANWVQQKPGQAPRGLIGGTNKRAPGVPARFSGSLSGGKAALTISGAQPEDEAEYYCALWYSNLWVFGGGTKLTVL | IC50 | 0.28
